For each record, write down the corresponding inhibition at 10 µM.
Tested on: SN 12C
method: NCI-60 anticancer screening (SRB)
Format: cell-based
assay-setup: Homo sapiens, SN12C; SN 12C, renal cancer; one dose 10 μM; read-out: Growth Inhibition Percentage (GI %)

Here is how some molecules turned out for inhibition at 10 µM.
| molecule | inhibition at 10 µM |
| --- | --- |
| CCOC(=O)C1=C(N)N(c2ccc(C)cc2)C2=C(C(=O)CC(C)(C)C2)C1c1ccccn1 (racemic) [12b] | < 10% |
| CCOC(=O)C1=C(N)N(c2ccccc2)C2=C(C(=O)CC(C)(C)C2)C1c1ccccn1 (racemic) [12a] | < 10% |
| CCOC(=O)C1=C(N)N(c2ccc(Cl)cc2)C2=C(C(=O)CC(C)(C)C2)C1c1ccc(Cl)cc1Cl (racemic) [10d] | 47% |
| CCOC(=O)C1=C(N)N(c2ccc(Cl)cc2)C2=C(C(=O)CC(C)(C)C2)C1c1ccc([N+](=O)[O-])cc1 (racemic) | < 10% |
| CCOC(=O)C1=C(N)N(c2ccc(C)cc2)C2=C(C(=O)CC(C)(C)C2)C1c1ccc(OC)cc1 (racemic) | < 10% |
| CCOC(=O)C1=C(N)N(c2ccc(C)cc2)C2=C(C(=O)CC(C)(C)C2)C1c1ccccc1OC (racemic) | < 10% |
| CCOC(=O)C1=C(N)N(c2ccccc2)C2=C(C(=O)CC(C)(C)C2)C1c1cccc(Cl)c1Cl (racemic) [10a] | 37% |
| CCOC(=O)C1=C(N)N(c2ccc(Cl)cc2)C2=C(C(=O)CC(C)(C)C2)C1c1ccccc1Br (racemic) | 13% |
| CCOC(=O)C1=C(N)N(c2ccc(Cl)cc2)C2=C(C(=O)CC(C)(C)C2)C1c1ccc(F)cc1 (racemic) | < 10% |
| CCOC(=O)C1=C(N)N(c2ccccc2)C2=C(C(=O)CC(C)(C)C2)C1c1ccc([N+](=O)[O-])cc1 (racemic) | < 10% |

Each molecule below has a reported value. Please supply its inhibition at 10 µM.
1. CCOC(=O)C1=C(N)N(c2ccc(C)cc2)C2=C(C(=O)CC(C)(C)C2)C1c1ccc(Cl)cc1 (racemic)
2. CCOC(=O)C1=C(N)N(c2ccccc2)C2=C(C(=O)CC(C)(C)C2)C1c1ccc(F)cc1 (racemic)
3. CCOC(=O)C1=C(N)N(c2ccc(Cl)cc2)C2=C(C(=O)CC(C)(C)C2)C1c1cccnc1 (racemic) [12f]
4. CCOC(=O)C1=C(N)N(c2ccc(C)cc2)C2=C(C(=O)CC(C)(C)C2)C1c1ccccc1Cl (racemic)

Reply |
< 10%
< 10%
< 10%
< 10%

Ask | Identify the measured inhibition at 10 µM of CCOC(=O)C1=C(N)N(c2ccc(Cl)cc2)C2=C(C(=O)CC(C)(C)C2)C1c1ccccc1Cl (racemic) for SN 12C.
Reply | 31%

###

Test system: LOX IMVI
method: NCI-60 anticancer screening (SRB)
Type: cell-based
assay-setup: Homo sapiens, melanoma, one dose 10 μM, read-out: Growth Inhibition Percentage (GI %)
measured-parameter: inhibition at 10 µM

Here is how some molecules turned out for inhibition at 10 µM.
| molecule | result |
| --- | --- |
| CCOC(=O)C1=C(N)N(c2ccc(C)cc2)C2=C(C(=O)CC(C)(C)C2)C1c1ccc([N+](=O)[O-])cc1 (racemic) [8j] | < 10% |
| CCOC(=O)C1=C(N)N(c2ccc(Cl)cc2)C2=C(C(=O)CC(C)(C)C2)C1c1ccc(Cl)cc1Cl (racemic) [10d] | < 10% |
| CCOC(=O)C1=C(N)N(c2ccc(C)cc2)C2=C(C(=O)CC(C)(C)C2)C1c1ccccn1 (racemic) [12b] | < 10% |
| CCOC(=O)C1=C(N)N(c2ccc(Cl)cc2)C2=C(C(=O)CC(C)(C)C2)C1c1cccnc1 (racemic) [12f] | 12% |
| CCOC(=O)C1=C(N)N(c2ccc(Cl)cc2)C2=C(C(=O)CC(C)(C)C2)C1c1ccc(F)cc1 (racemic) [8b] | 14% |

Each molecule below has a reported value. Please supply its inhibition at 10 µM.
1. CCOC(=O)C1=C(N)N(c2ccccc2)C2=C(C(=O)CC(C)(C)C2)C1c1ccccc1OC (racemic) [6g]
2. CCOC(=O)C1=C(N)N(c2ccc(Cl)cc2)C2=C(C(=O)CC(C)(C)C2)C1c1ccccc1OC (racemic) [6i]
3. CCOC(=O)C1=C(N)N(c2ccccc2)C2=C(C(=O)CC(C)(C)C2)C1c1ccc(F)cc1 (racemic) [8a]
4. CCOC(=O)C1=C(N)N(c2ccc(Cl)cc2)C2=C(C(=O)CC(C)(C)C2)C1c1ccc(N2CCOCC2)cc1 (racemic) [8m]

Reply |
1: < 10%; 2: 37%; 3: < 10%; 4: < 10%

Each molecule below has a reported value. Please supply its inhibition at 10 µM.
1. CCOC(=O)C1=C(N)N(c2ccccc2)C2=C(C(=O)CC(C)(C)C2)C1c1ccc(N2CCOCC2)cc1 (racemic) [8l]
2. CCOC(=O)C1=C(N)N(c2ccc(C)cc2)C2=C(C(=O)CC(C)(C)C2)C1c1cccnc1 (racemic) [12e]
3. CCOC(=O)C1=C(N)N(c2ccccc2)C2=C(C(=O)CC(C)(C)C2)C1c1ccc(Cl)cc1Cl (racemic) [10c]

Reply |
["< 10%", "< 10%", "< 10%"]

Each molecule below has a reported value. Please supply its inhibition at 10 µM.
1. CCOC(=O)C1=C(N)N(c2ccccc2)C2=C(C(=O)CC(C)(C)C2)C1c1cccnc1 (racemic) [12d]
2. CCOC(=O)C1=C(N)N(c2ccc(Cl)cc2)C2=C(C(=O)CC(C)(C)C2)C1c1ccccc1Cl (racemic) [6c]
3. CCOC(=O)C1=C(N)N(c2ccc(Cl)cc2)C2=C(C(=O)CC(C)(C)C2)C1c1cccc(Cl)c1Cl (racemic) [10b]

Reply |
< 10%
18%
< 10%

###

target-system: EGFR^T790M (Homo sapiens, UniProt P00533, T790M)
Sequence (P00533 25-1210 T790M): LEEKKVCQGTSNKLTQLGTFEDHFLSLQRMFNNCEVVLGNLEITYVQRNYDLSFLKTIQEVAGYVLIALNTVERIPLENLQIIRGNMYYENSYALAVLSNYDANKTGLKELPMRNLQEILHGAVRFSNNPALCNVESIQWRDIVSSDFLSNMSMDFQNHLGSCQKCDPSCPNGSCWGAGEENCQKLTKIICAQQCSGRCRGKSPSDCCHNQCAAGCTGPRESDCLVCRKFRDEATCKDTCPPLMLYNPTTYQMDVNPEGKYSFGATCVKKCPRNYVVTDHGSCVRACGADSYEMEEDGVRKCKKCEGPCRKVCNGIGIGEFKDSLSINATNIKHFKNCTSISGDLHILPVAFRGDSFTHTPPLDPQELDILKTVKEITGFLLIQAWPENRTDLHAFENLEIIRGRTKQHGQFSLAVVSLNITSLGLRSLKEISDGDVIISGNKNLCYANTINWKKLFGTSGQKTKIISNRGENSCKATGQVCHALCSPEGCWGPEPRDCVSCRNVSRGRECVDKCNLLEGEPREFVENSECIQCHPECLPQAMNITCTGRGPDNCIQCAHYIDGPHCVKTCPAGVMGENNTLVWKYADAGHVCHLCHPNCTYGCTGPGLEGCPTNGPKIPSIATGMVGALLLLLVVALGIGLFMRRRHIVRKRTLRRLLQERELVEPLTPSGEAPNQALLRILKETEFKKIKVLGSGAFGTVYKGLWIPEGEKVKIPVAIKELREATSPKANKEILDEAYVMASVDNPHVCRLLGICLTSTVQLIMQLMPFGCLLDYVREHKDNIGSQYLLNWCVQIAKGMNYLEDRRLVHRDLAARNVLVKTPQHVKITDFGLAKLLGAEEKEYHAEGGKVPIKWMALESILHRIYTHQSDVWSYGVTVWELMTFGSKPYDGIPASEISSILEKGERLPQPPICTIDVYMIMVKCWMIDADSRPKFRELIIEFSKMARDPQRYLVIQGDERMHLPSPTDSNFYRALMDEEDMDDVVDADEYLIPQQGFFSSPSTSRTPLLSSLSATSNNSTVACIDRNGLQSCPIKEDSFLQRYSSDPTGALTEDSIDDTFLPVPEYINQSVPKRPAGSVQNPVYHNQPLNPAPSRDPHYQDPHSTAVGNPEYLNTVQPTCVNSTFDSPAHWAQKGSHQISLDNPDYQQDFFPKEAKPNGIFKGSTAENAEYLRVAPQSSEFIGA
method: biochemical
measured-parameter: IC50
# number then unit; no other words

| molecule | IC50 |
| --- | --- |
| CCOC(=O)C1=C(N)N(c2ccccc2)C2=C(C(=O)CC(C)(C)C2)C1c1ccccc1Br (racemic) | 410 nM |
| CCOC(=O)C1=C(N)N(c2ccccc2)C2=C(C(=O)CC(C)(C)C2)C1c1ccccc1Cl (racemic) | 610 nM |
| CCOC(=O)C1=C(N)N(c2ccc(C)cc2)C2=C(C(=O)CC(C)(C)C2)C1c1ccccc1Br (racemic) | 480 nM |
| CCOC(=O)C1=C(N)N(c2ccc(Cl)cc2)C2=C(C(=O)CC(C)(C)C2)C1c1ccc(Cl)cc1 (racemic) | 693 nM |
| CCOC(=O)C1=C(N)N(c2ccc(Cl)cc2)C2=C(C(=O)CC(C)(C)C2)C1c1ccccc1OC (racemic) | 450 nM |

Each molecule below has a reported value. Please supply its IC50.
1. CCOC(=O)C1=C(N)N(c2ccc(Cl)cc2)C2=C(C(=O)CC(C)(C)C2)C1c1ccccc1Cl (racemic)
2. CCOC(=O)C1=C(N)N(c2ccc(Cl)cc2)C2=C(C(=O)CC(C)(C)C2)C1c1cccc(Cl)c1Cl (racemic) [10b]
3. CCOC(=O)C1=C(N)N(c2ccccc2)C2=C(C(=O)CC(C)(C)C2)C1c1cccc(Cl)c1Cl (racemic) [10a]
4. CCOC(=O)C1=C(N)N(c2ccc(Cl)cc2)C2=C(C(=O)CC(C)(C)C2)C1c1ccc(F)cc1 (racemic)
5. CCOC(=O)C1=C(N)N(c2ccccc2)C2=C(C(=O)CC(C)(C)C2)C1c1ccc(Cl)cc1 (racemic)

Reply |
1. 530 nM
2. 954 nM
3. 532 nM
4. 650 nM
5. 820 nM

###

System: U251
method: NCI-60 anticancer screening (SRB)
Format: cell-based
assay-setup: Homo sapiens, U-251; U251, CNS cancer; one dose 10 μM; read-out: Growth Inhibition Percentage (GI %)
For each record, write down the corresponding inhibition at 10 µM.

Here is how some compounds turned out for inhibition at 10 µM.
| compound | inhibition at 10 µM |
| --- | --- |
| CCOC(=O)C1=C(N)N(c2ccc(Cl)cc2)C2=C(C(=O)CC(C)(C)C2)C1c1ccccc1Cl (racemic) [6c] | 54% |
| CCOC(=O)C1=C(N)N(c2ccccc2)C2=C(C(=O)CC(C)(C)C2)C1c1ccccn1 (racemic) [12a] | < 10% |
| CCOC(=O)C1=C(N)N(c2ccc(C)cc2)C2=C(C(=O)CC(C)(C)C2)C1c1ccc(OC)cc1 (racemic) [8g] | < 10% |

Query compound follows.
Ask | Would you mind telling me what inhibition at 10 µM value was observed for CCOC(=O)C1=C(N)N(c2ccccc2)C2=C(C(=O)CC(C)(C)C2)C1c1ccccc1Br (racemic) [6d] ?
Reply | < 10%
